# Protocol Details: Human HepG2 cell viability assay in 384 well format
# Type: toxicity, cell-based
# Design: dose 125 nL, time 70.5 hour; concentration not given beside the values
# Setup Conditions: HepG2 cells, read-out: Inhibition
Recorded Endpoint: cytotoxicity at 70.5 h (%)

>>> result("COc1ccccc1COCC(O)CN(C)c1ccc(C)cc1C (stereo not given)")
15.1
>>> result("Cc1cnn(CC2CN(c3ncnc4c3CCC4)CCO2)c1 (stereo not given)")
-1.52
>>> result("CC(C)Cc1nnc(NC(=O)NC(CCO)c2cccs2)s1 (stereo not given)")
-3.34
>>> result("COc1ccc(OC)c(C(=O)N(C)Cc2ncc(C)c(OC)c2C)c1")
-9
>>> result("O=C(c1ccco1)N1CCC2(CCCN(c3ncc(F)cn3)C2)C1 (stereo not given)")
13.2
>>> result("Cc1nn(C)c(Cl)c1C1CCCN1C(=O)c1ccnn1C (stereo not given)")
-14.4
>>> result("C[C@@H]1CN(C2CCN(c3ccccc3)CC2)CC[C@@]1(O)C1CCOCC1")
-3.71
>>> result("COc1ccccc1C(CNC(=O)NCc1cc[nH]n1)N1CCCC1 (stereo not given)")
12.7
>>> result("CN(C)C(=O)CC1CC2(CCN(C(=O)N(C)C)CC2)Oc2ccccc21 (stereo not given)")
-11.4
>>> result("CCN1CC2(CCN(C(=O)C(C)Oc3cccc(Cl)c3)CC2)OC1=O (stereo not given)")
-11.6
>>> result("CCC[C@@H]1CN(Cc2nnc(-c3cccc(F)c3)o2)C[C@H]1NC(C)=O")
-15.2
>>> result("c1cc(-c2ccc3c(c2)C2(CC3)CCN(c3nncs3)CC2)ccn1")
1.28
>>> result("O=C(N1CCCCC1)N1CCN(CC(O)c2ccccc2)CC1 (stereo not given)")
-3.61
>>> result("Cc1c(Cl)cccc1OCC(=O)NC1(C#N)CCSC1 (stereo not given)")
-10.3
>>> result("CC(C)CC(C)N(C)C(=O)c1nc(S(C)(=O)=O)n2ccccc12 (stereo not given)")
2.74
>>> result("Cc1cc(F)ccc1S(=O)(=O)N1CCN(C)c2ccncc21")
4.79
>>> result("Cc1nccn1-c1ccc(N2CCC(NC(C)C(C)C)CC2)cc1 (stereo not given)")
-2
>>> result("Cc1n[nH]c(C)c1CNCC(O)c1cccc(Cl)c1 (stereo not given)")
-13.1
>>> result("CC(C)c1noc(C(C)N2CCC(c3nc4ccccc4[nH]3)CC2)n1 (stereo not given)")
-7.42
>>> result("c1cc(-c2nnc(C3CCCN(CC4CCCCC4)C3)o2)ccn1 (stereo not given)")
-5.12
>>> result("COCC(C)(CCO)NC(=O)Nc1cccc(F)c1C (stereo not given)")
21.4
>>> result("Cn1nnnc1SCCNC(=O)C1CCN(C(=O)C2CC2)CC1")
24.5
>>> result("CCN(CC)C(CNC(=O)c1ccc(S(C)(=O)=O)cc1)c1ccco1 (stereo not given)")
-0.309
>>> result("Cc1ccccc1CCCN1CCS(=O)(=O)CC1C (stereo not given)")
-6.59
>>> result("O=C(c1ccoc1)N1CCC2(C1)CN(c1ncccn1)C2")
0.524
>>> result("CN(C)c1cccc(C2CCCN2CCCN2CCOC2=O)c1 (stereo not given)")
7.84
>>> result("N#Cc1ccccc1OCCN1CCn2c(nnc2C2CC2)C1")
5.39
>>> result("CCN1CCC(CC(=O)NCc2nc(C)cc(C)n2)CC1")
-3.98
>>> result("CCCNS(=O)(=O)c1ccc(C(=O)NC(CC)c2cnn(C)c2)cc1 (stereo not given)")
-4.79
>>> result("CN(C)C(=O)N1CC2(CCN(S(C)(=O)=O)CC2)c2ccccc21")
-1.58
>>> result("O=C([C@@H]1COC[C@H]2CN(C3CCCC3)C[C@H]21)N1CCCCO1")
11.7
>>> result("CCn1cc(C(=O)NCC(C)(CC)N2CCOCC2)c2ccccc21 (stereo not given)")
5.27
>>> result("CC(C)(C)CCN1CCN(Cn2nccc2-c2cccnc2)CC1")
0.907
>>> result("FC1(F)CCN(Cc2cccnc2)CC12CCN(c1ccccn1)C2 (stereo not given)")
-15.1
>>> result("CSc1ccc(C(=O)C2CCCN(C(=O)CCCn3cncn3)C2)cc1 (stereo not given)")
-6.96
>>> result("Cc1cccc(OC2CCN(C(=O)c3ccc4ncsc4c3)CC2)n1")
0.229
>>> result("CN1CCN(Cc2cnc3n2CCN(Cc2cccs2)C3)CC1")
3.18
>>> result("CN(C)CCN1CC(C(=O)NCc2cccc(-n3cccn3)c2)CC1=O (stereo not given)")
-0.603
>>> result("Cc1ccc(Br)c(S(=O)(=O)NCc2ccnn2C)c1")
-5.04
>>> result("COC(=O)CN(C(=O)c1cc(C)c(F)cc1F)c1cccc(C)n1")
-5.14
>>> result("Cc1ccc(N2CCN(C(=O)CCc3n[nH]c(C)n3)CC2=O)cc1")
-8.56
>>> result("COC(=O)[C@@H]1C[C@@H](NC(=O)CN2C(=O)N(C)Cc3ccccc32)CN1C")
-3.77
>>> result("Cc1cccc(NC(=O)Cc2cnc3n(C)c(=O)[nH]c(=O)n23)c1")
22.4
>>> result("CC(C)CN1CCN(C(=O)c2[nH]nnc2Nc2ccccc2F)CC1")
8.05
>>> result("N#CCCN(Cc1cccnc1)C(=O)c1ccc(-n2cnnn2)cc1")
-12.1

The reported numbers originate from ChEMBL document CHEMBL3507680.
